Attribution: patent US8546608B2

Assayed system: 20S Human Erythrocyte Proteasome (HEP) (Homo sapiens, UniProt P20618+P28074)
Construct: 20S Human Erythrocyte Proteasome (HEP), purchased from Immatics Biotechnologies Inc
Assay protocol: Chymotrypsin-like activity of 20S Human Erythrocyte Proteasome (HEP), IC50 determination
Conditions used: assay of Example C, inhibition of HEP
# IC50 per record follows

- CC(C)C[C@H](NC(=O)[C@H](CCCNC(=N)N[N+](=O)[O-])NC(=O)/C=C/c1ccc(Br)cc1)B1O[C@@H]2C[C@@H]3C[C@@H](C3(C)C)[C@]2(C)O1: < 10 nM

What IC50 value was documented for this compound, `Cc1ccc(CCCC(=O)N[C@@H](CCCNC(=N)N[N+](=O)[O-])C(=O)N[C@@H](CC(C)C)B2O[C@@H]3C[C@@H]4C[C@@H](C4(C)C)[C@]3(C)O2)cc1` ?
< 10 nM

What IC50 value was documented for this compound, `CCCCc1ccc(C(=O)N[C@@H](CNC(=O)C2CC2)C(=O)N[C@@H](CC(C)C)B2O[C@@H]3C[C@@H]4C[C@@H](C4(C)C)[C@]3(C)O2)cc1` ?
< 10 nM

What IC50 value was documented for this compound, `CCCCc1ccc(C(=O)N[C@H](CNC(=O)c2ccc(C)cc2)C(=O)N[C@@H](CC(C)C)B(O)O)cc1` ?
< 100 nM

What IC50 value was documented for this compound, `CC(C)C[C@H](NC(=O)[C@H](CCCNC(=N)N[N+](=O)[O-])NC(=O)CCCc1ccccc1)B(O)O` ?
< 10 nM

What IC50 value was documented for this compound, `COc1ccc(F)cc1C(=O)N[C@@H](CCCNC(=N)N[N+](=O)[O-])C(=O)N[C@@H](CC(C)C)B(O)O` ?
< 10 nM
